Conditions: 298.15 K; 101.3 kPa; Liquid
assay_readout: mass density (kg/m3)

For the compound CCO [ethanol] , what mass density is on record?
785.082

For the compound c1ccccc1 [benzene] , what mass density is on record?
873.52

For the compound CC(C)CC(C)(C)C [2,2,4-trimethylpentane] , what mass density is on record?
687.749

For the compound Cc1ccccc1 [toluene] , what mass density is on record?
862.173

For the compound CCc1ccccc1 [ethylbenzene] , what mass density is on record?
862.068

----------
Details: 323.15 K; 101.3 kPa; Liquid; Sing-around technique in a fixed-path interferometer
assay_readout: speed of sound (m/s)

For the compound "CCO" , what speed of sound is on record?
1059.3

For the compound "CC(C)(C)O" , what speed of sound is on record?
1013

For the compound "c1ccccc1" , what speed of sound is on record?
1184.6

For the compound "CC(C)CC(C)(C)C" , what speed of sound is on record?
979.25

For the compound "Cc1ccccc1" , what speed of sound is on record?
1196.6

For the compound "CCc1ccccc1" , what speed of sound is on record?
1213.6

----------
Settings: 323.15 K; 101.3 kPa; Liquid
assay_readout: mass density (kg/m3)

For the molecule "Cc1ccccc1" , what mass density is on record?
838.706

For the molecule "CCO" , what mass density is on record?
763.177

For the molecule "CC(C)(C)O" , what mass density is on record?
753.679

For the molecule "CC(C)CC(C)(C)C" , what mass density is on record?
666.832

For the molecule "CCc1ccccc1" , what mass density is on record?
840.054

For the molecule "c1ccccc1" , what mass density is on record?
846.641

----------
Conditions: 288.15 K; 101.3 kPa; Liquid; Sing-around technique in a fixed-path interferometer
assay_readout: speed of sound (m/s)

For the compound "CC(C)CC(C)(C)C" , what speed of sound is on record?
1124.3

For the compound "c1ccccc1" , what speed of sound is on record?
1345.5

For the compound "Cc1ccccc1" , what speed of sound is on record?
1347.5

For the compound "CCc1ccccc1" , what speed of sound is on record?
1359.1

For the compound "CCO" , what speed of sound is on record?
1177.3

----------
Conditions: 298.15 K; 101.3 kPa; Liquid; Sing-around technique in a fixed-path interferometer
assay_readout: speed of sound (m/s)

For the molecule "Cc1ccccc1" , what speed of sound is on record?
1303.4

For the molecule "CCO" , what speed of sound is on record?
1142.4

For the molecule "c1ccccc1" , what speed of sound is on record?
1298.3

For the molecule "CC(C)CC(C)(C)C" , what speed of sound is on record?
1082.2

For the molecule "CCc1ccccc1" , what speed of sound is on record?
1316.2
